ASSAYED TARGET: T1, N-terminal His-tag PCNA (recombinant (His)6-PCNA fusion protein; Proliferating Cell Nuclear Antigen) (Homo sapiens (Human), UniProt P12004 1-261)
T1 construct: Expressed in E. coli BL21 (DE3) from vector pEV-L8, which carries an N-terminal His-tag and a TEV protease site; No tag cleavage is described; also called His-tagged PCNA; recombinant PCNA
T1 sequence (P12004 other isoform, or with tags, fused parts or gaps limits assumed): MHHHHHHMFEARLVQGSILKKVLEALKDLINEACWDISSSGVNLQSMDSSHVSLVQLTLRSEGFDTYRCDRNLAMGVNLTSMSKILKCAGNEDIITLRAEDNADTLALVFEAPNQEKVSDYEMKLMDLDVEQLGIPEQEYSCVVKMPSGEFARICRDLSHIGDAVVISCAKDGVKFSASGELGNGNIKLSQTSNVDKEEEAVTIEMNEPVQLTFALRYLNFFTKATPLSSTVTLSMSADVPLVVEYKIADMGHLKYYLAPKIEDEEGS
EXPERIMENTAL DETAILS: fluorescence polarization; fixed FAM-PL (5 nM) titrated with two-fold increasing recombinant His-tagged PCNA
* marks the point of attachment. 5FAM = O=C1OC2(c3ccc(O)cc3Oc3cc(O)ccc32)c2ccc(C(=O)*)cc21; Ahx = NCCCCCC(=O)O
ATTRIBUTE MEASURED: pKd
The value called pKd is obtained by taking minus log10 of the concentration in mol/L.

Task: Bench note: what pKd did {5FAM-Ahx}-SAVLQKKITDYFHPKK-NH2 (also called fluorescein-labeled Pogo Ligase peptide; PL peptide) [5-FAM-labeled POGO ligase peptide (FAM-PL)] show?
Output: 6.97

Taken from patent US10758588.
